From: patent US20230086702A1

- test.target: LZK (Homo sapiens, UniProt O43283)
- Construct: 10 nM LZK, catalytic domain, Carna Biosiences in assay buffer; purchased Carna Biosciences ('Carna Biosiences' [sic])
- Sequence (O43283 168-409 limits assumed): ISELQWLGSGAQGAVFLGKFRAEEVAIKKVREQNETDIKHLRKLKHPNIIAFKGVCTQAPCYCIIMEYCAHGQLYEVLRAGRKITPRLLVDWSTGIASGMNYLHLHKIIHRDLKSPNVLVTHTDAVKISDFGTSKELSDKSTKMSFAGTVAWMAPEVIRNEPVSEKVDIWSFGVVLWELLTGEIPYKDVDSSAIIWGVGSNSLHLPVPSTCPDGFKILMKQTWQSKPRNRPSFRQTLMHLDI
- experiment.description: LZK biochemical assay (TR-FRET, MKK7 phosphorylation)
- particulars: LZK catalytic domain, MKK7 substrate, 15 μM ATP
pIC50: −log10 of the molar value.
Property: pIC50; scope: individual compounds
value.type: pIC50

compound="CC(C)C(c1ccc(C(F)(F)F)nc1)n1cc(-c2cc(C(=O)N[C@H]3CCOC3)n3nc(N)nc3c2)cn1 (single isomer, unassigned) [Example I-181]" reported_result=7.85
compound="CC[C@H](C)NC(=O)c1cc(-c2cnn([C@H](c3ccc(C(F)F)nc3)C(C)C)c2)cc2nc(N)nn12 (single isomer, unassigned)" reported_result=8.68
compound="Nc1nc2cc(-c3cnn(C(c4ccc(C(F)(F)F)nc4)C4CCOCC4)c3)cc(C(=O)N[C@H]3CCOC3)n2n1 (single isomer, unassigned) [Example I-184]" reported_result=7.66
compound="CC[C@H](C)NC(=O)c1cc(-c2cnn([C@@H](CC)c3ccc(C(F)(F)F)nc3)c2)cc2nc(N)nn12 (single isomer, unassigned)" reported_result=8.62
compound="CC[C@H](C)NC(=O)c1cc(-c2cnn(C(COC)c3ccccc3)c2)cn2nc(N)nc12 (mixture of isomers) [Example I-40]" reported_result=7.17
compound="CCC(c1ccc(C(F)(F)F)nc1)n1cc(-c2cc(C(=O)N[C@@H](C)CO)c3nc(N)nn3c2)cn1 (single isomer, unassigned) [Example I-152]" reported_result=8.41
compound="CC[C@H](C)NC(=O)c1cc(-c2cnn(C(CC(F)(F)F)c3ccccc3)c2)cn2nc(N)nc12 (mixture of isomers) [Example I-37]" reported_result=6.62
compound="CC[C@H](C)NC(=O)c1cc(-c2cnn(C(c3ccc(C(F)(F)F)nc3)C3CCOCC3)c2)cc2nc(N)nn12 (single isomer, unassigned) [Example I-112]" reported_result=8.15
compound="CCC(c1ccc(C(F)(F)F)nc1)n1cc(-c2cc(C(=O)N[C@H]3CCOC3)n3nc(N)nc3c2)cn1 (single isomer, unassigned) [Example I-179]" reported_result=8.10
compound="CC(C)[C@@H](c1ccc(F)cc1)n1cc(-c2cc(C(=O)N[C@@H](C)CO)c3nc(N)nn3c2)cn1 (single isomer, unassigned)" reported_result=7.08
compound=CC[C@H](C)NC(=O)c1cc(-c2cnn(C3CN(C)C3)c2)cn2nc(N)nc12 reported_result=7.59
compound="CC[C@H](C)NC(=O)c1cc(-c2cnn(C(c3c(F)cncc3F)C(C)C)c2)cc2nc(N)nn12 (single isomer, unassigned) [Example I-125]" reported_result=7.18
compound="CC[C@H](C)NC(=O)c1cc(-c2cnn(C(COC)c3ccccc3)c2)cn2nc(N)nc12 (single isomer, unassigned) [Example I-41]" reported_result=7.59

* * *

- test.target: DLK (Homo sapiens)
- Construct: 10 nM DLK, catalytic domain, Carna Biosiences; purchased Carna Biosciences ('Carna Biosiences' [sic])
- Sequence (Q12852 125-366 limits assumed): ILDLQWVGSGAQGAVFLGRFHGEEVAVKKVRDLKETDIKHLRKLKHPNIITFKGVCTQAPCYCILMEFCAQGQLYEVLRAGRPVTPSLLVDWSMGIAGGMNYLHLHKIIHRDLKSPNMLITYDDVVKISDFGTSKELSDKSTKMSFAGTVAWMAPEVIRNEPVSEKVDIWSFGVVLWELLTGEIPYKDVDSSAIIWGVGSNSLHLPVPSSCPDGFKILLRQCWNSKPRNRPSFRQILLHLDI
- experiment.description: DLK biochemical assay (TR-FRET, MKK7 phosphorylation)
value.type: IC50

compound="Nc1nc2cc(-c3cnn(C(c4ccc(C(F)(F)F)nc4)C4CCOCC4)c3)cc(-c3ccc(=O)n(CC(F)(F)F)c3)n2n1 (single isomer, unassigned) [II-193]" value_type=IC50 reported_result="15 nM"
compound="CCC(c1ccc(C(F)(F)F)nc1)n1cc(-c2cc(-c3cccc(C(C)(C)O)c3)c3nc(N)nn3c2)cn1 (racemic) [II-7]" value_type=IC50 reported_result="0.8 nM"
compound="CS(=O)(=O)c1cccc(-c2cc(-c3cnn(C(c4ccc(C(F)(F)F)nc4)C4CCOCC4)c3)cn3nc(N)nc23)c1 (single isomer, unassigned) [II-15]" value_type=IC50 reported_result="0.9 nM"
